test system: sarcosine oxidase; experiment: Influence of metal ions (metal chloride salts) on sarcosine oxidase activity; assay type: biochemical; conditions: sarcosine oxidase activity with metal chloride salt, final concentration 2 mM; None = 100; Table 2 (second example)
Relative activity (%) vs 7%: at or above is yes, below is no.

Could you please find out whether [Cl][Cu][Cl] [Cu^2+] has Relative activity (%) that meets 7% or exceeds it?
no

Could you please find out whether [Cl][Hg][Cl] [Hg^2+] has Relative activity (%) that meets 7% or exceeds it?
no

Could you please find out whether [Cl][Ni][Cl] [Ni^2+] has Relative activity (%) that meets 7% or exceeds it?
yes

Could you please find out whether [Cl][Mn][Cl] [Mn^2+] has Relative activity (%) that meets 7% or exceeds it?
yes

Could you please find out whether [Cl-].[Cl-].[Co+2] [Co^2+] has Relative activity (%) that meets 7% or exceeds it?
yes

Could you please find out whether [Cl][Fe][Cl] [Fe^2+] has Relative activity (%) that meets 7% or exceeds it?
yes
